Biological target: T1, TNFR1 (Homo sapiens, UniProt P19438)
T1 chain: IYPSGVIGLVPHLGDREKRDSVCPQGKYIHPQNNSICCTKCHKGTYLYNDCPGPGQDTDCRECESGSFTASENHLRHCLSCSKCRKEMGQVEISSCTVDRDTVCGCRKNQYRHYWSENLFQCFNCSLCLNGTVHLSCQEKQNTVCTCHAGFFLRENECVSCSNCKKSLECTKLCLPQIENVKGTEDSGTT
Assay: yeast display SC50
Quick rule: apparent Kd (screen) of at least 3 nM means Criterion met, below that means Criterion not met.

A10Y (designed binder) SMEEEVEKAYKEYEKKKKEAIEKHLEKLKAKDKEAAERFLKELEEAAKEYAKDEAKTMSEEEAKRRAKKYKEKVLLSELSEEEQKEIKEAEEKLVRTILKYVEEAAK: Criterion met
A20Q (designed binder) SMEEEVEKAAKEYEKKKKEQIEKHLEKLKAKDKEAAERFLKELEEAAKEYAKDEAKTMSEEEAKRRAKKYKEKVLLSELSEEEQKEIKEAEEKLVRTILKYVEEAAK: Criterion not met
Y50N (designed binder) SMEEEVEKAAKEYEKKKKEAIEKHLEKLKAKDKEAAERFLKELEEAAKENAKDEAKTMSEEEAKRRAKKYKEKVLLSELSEEEQKEIKEAEEKLVRTILKYVEEAAK: Criterion not met
A10H (designed binder) SMEEEVEKAHKEYEKKKKEAIEKHLEKLKAKDKEAAERFLKELEEAAKEYAKDEAKTMSEEEAKRRAKKYKEKVLLSELSEEEQKEIKEAEEKLVRTILKYVEEAAK: Criterion met
R96E (designed binder) SMEEEVEKAAKEYEKKKKEAIEKHLEKLKAKDKEAAERFLKELEEAAKEYAKDEAKTMSEEEAKRRAKKYKEKVLLSELSEEEQKEIKEAEEKLVETILKYVEEAAK: Criterion met
A90Y (designed binder) SMEEEVEKAAKEYEKKKKEAIEKHLEKLKAKDKEAAERFLKELEEAAKEYAKDEAKTMSEEEAKRRAKKYKEKVLLSELSEEEQKEIKEYEEKLVRTILKYVEEAAK: Criterion not met

Has K64C (designed binder) SMEEEVEKAAKEYEKKKKEAIEKHLEKLKAKDKEAAERFLKELEEAAKEYAKDEAKTMSEEEACRRAKKYKEKVLLSELSEEEQKEIKEAEEKLVRTILKYVEEAAK a recorded apparent Kd (screen) greater than or equal to 3 nM?
Criterion not met

Hi, just wondering whether A47Q (designed binder) SMEEEVEKAAKEYEKKKKEAIEKHLEKLKAKDKEAAERFLKELEEAQKEYAKDEAKTMSEEEAKRRAKKYKEKVLLSELSEEEQKEIKEAEEKLVRTILKYVEEAAK shows apparent Kd (screen) of 3 nM or higher.
Criterion not met

apparent Kd (screen) >= 3 nM for F39K (designed binder) SMEEEVEKAAKEYEKKKKEAIEKHLEKLKAKDKEAAERKLKELEEAAKEYAKDEAKTMSEEEAKRRAKKYKEKVLLSELSEEEQKEIKEAEEKLVRTILKYVEEAAK ?
Criterion met

Is it the case that E92S (designed binder) SMEEEVEKAAKEYEKKKKEAIEKHLEKLKAKDKEAAERFLKELEEAAKEYAKDEAKTMSEEEAKRRAKKYKEKVLLSELSEEEQKEIKEAESKLVRTILKYVEEAAK has apparent Kd (screen) reaching or exceeding 3 nM?
Criterion met

Please check the record K41R (designed binder) SMEEEVEKAAKEYEKKKKEAIEKHLEKLKAKDKEAAERFLRELEEAAKEYAKDEAKTMSEEEAKRRAKKYKEKVLLSELSEEEQKEIKEAEEKLVRTILKYVEEAAK and state if its apparent Kd (screen) is at or above 3 nM.
Criterion not met

Hi team, for K73H (designed binder) SMEEEVEKAAKEYEKKKKEAIEKHLEKLKAKDKEAAERFLKELEEAAKEYAKDEAKTMSEEEAKRRAKKYKEHVLLSELSEEEQKEIKEAEEKLVRTILKYVEEAAK , is the recorded apparent Kd (screen) at or above 3 nM?
Criterion met

# check: apparent Kd (screen) of E42N (designed binder) SMEEEVEKAAKEYEKKKKEAIEKHLEKLKAKDKEAAERFLKNLEEAAKEYAKDEAKTMSEEEAKRRAKKYKEKVLLSELSEEEQKEIKEAEEKLVRTILKYVEEAAK is greater than or equal to 3 nM
Criterion met

Hi team, for L94I (designed binder) SMEEEVEKAAKEYEKKKKEAIEKHLEKLKAKDKEAAERFLKELEEAAKEYAKDEAKTMSEEEAKRRAKKYKEKVLLSELSEEEQKEIKEAEEKIVRTILKYVEEAAK , is the recorded apparent Kd (screen) at or above 3 nM?
Criterion not met

Does apparent Kd (screen) meet or surpass 3 nM for E72A (designed binder) SMEEEVEKAAKEYEKKKKEAIEKHLEKLKAKDKEAAERFLKELEEAAKEYAKDEAKTMSEEEAKRRAKKYKAKVLLSELSEEEQKEIKEAEEKLVRTILKYVEEAAK ?
Criterion not met
